Test: Cytotoxicity against human L02 cells assessed as inhibition of cell growth incubated for 72 hrs by MTT assay
Assay type: toxicity, cell-based
In this section we review reported IC50 at 72 h values for a set of compounds.

Compound	IC50 at 72 h
Cn1ccc(NC(=O)Nc2ccc(-c3nc(-c4ccc(CN5CCN(S(C)(=O)=O)CC5)s4)nc(N4CCOCC4)n3)cc2)n1	> 100 µM
CS(=O)(=O)N1CCN(Cc2ccc(-c3nc(-c4ccc(NC(=O)Nc5ccncc5)cc4)nc(N4CCOCC4)n3)s2)CC1	> 100 µM
CS(=O)(=O)N1CCN(Cc2ccc(-c3nc(-c4ccc(NC(=O)Nc5ccn[nH]5)cc4)nc(N4CCOCC4)n3)s2)CC1	> 100 µM

###

Test system: A549
Test: Antiproliferative activity against human A549 cells assessed as inhibition of cell growth incubated for 72 hrs by MTT assay
Format: functional, cell-based
Test Conditions: A549, 72 h

Compound	IC50, µM
CS(=O)(=O)N1CCN(Cc2ccc(-c3nc(-c4ccc(NC(=O)Nc5ncccn5)cc4)nc(N4CCOCC4)n3)s2)CC1	13.1
Cn1ccnc1NC(=O)Nc1ccc(-c2nc(-c3ccc(CN4CCN(S(C)(=O)=O)CC4)s3)nc(N3CCOCC3)n2)cc1	53.9
CS(=O)(=O)N1CCN(Cc2ccc(-c3nc(-c4ccc(NC(=O)Nc5ccn[nH]5)cc4)nc(N4CCOCC4)n3)s2)CC1	3.62
CS(=O)(=O)N1CCN(Cc2ccc(-c3nc(-c4ccc(NC(=O)Nc5cnccn5)cc4)nc(N4CCOCC4)n3)s2)CC1	7.08
CS(=O)(=O)N1CCN(Cc2ccc(-c3nc(-c4ccc(NC(=O)Nc5ccncc5)cc4)nc(N4CCOCC4)n3)s2)CC1	0.47
CS(=O)(=O)N1CCN(Cc2ccc(-c3nc(-c4ccc(NC(=O)Nc5nn[nH]n5)cc4)nc(N4CCOCC4)n3)s2)CC1	2.82
CS(=O)(=O)N1CCN(Cc2ccc(-c3nc(-c4ccc(NC(=O)NC5CN6CCC5CC6)cc4)nc(N4CCOCC4)n3)s2)CC1 (configuration not stated)	2.38

###

System: Phosphatidylinositol 4,5-bisphosphate 3-kinase catalytic subunit alpha isoform (Homo sapiens, UniProt P42336)
Sequence (P42336 whole entry, canonical isoform): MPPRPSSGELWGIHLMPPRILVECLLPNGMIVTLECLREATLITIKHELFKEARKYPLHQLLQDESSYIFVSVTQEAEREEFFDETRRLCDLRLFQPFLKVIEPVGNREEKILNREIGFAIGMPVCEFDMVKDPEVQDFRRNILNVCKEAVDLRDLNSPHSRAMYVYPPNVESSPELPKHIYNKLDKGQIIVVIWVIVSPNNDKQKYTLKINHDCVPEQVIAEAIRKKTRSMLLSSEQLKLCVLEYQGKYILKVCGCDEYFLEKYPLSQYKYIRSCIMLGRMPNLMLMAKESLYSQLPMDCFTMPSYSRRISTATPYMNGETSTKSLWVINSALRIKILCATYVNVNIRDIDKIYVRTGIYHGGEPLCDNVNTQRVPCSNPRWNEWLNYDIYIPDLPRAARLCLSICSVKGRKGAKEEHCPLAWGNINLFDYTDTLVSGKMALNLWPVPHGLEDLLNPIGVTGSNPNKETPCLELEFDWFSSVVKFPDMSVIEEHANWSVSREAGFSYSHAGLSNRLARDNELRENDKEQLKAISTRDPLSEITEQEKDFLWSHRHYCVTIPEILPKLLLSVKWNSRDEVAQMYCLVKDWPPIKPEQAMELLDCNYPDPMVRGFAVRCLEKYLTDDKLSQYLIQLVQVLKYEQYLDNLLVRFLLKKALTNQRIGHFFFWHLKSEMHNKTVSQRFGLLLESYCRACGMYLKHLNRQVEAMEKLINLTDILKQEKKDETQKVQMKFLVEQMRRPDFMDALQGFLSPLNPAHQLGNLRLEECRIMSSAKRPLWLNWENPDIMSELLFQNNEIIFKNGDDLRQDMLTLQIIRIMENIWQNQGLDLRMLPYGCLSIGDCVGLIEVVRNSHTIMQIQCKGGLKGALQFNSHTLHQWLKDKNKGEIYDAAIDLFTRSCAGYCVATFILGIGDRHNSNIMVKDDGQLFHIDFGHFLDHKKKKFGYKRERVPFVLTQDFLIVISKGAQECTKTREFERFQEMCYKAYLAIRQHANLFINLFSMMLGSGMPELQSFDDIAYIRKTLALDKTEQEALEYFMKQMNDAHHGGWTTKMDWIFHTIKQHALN
Test: Inhibition of PI3Kalpha (unknown origin) at 1 uM by kinase-glo luminescent assay relative to control
Measured Endpoint: inhibition (%)

Compound	Measured
CS(=O)(=O)N1CCN(Cc2ccc(-c3nc(-c4ccc(NC(=O)Nc5ccncc5)cc4)nc(N4CCOCC4)n3)s2)CC1	88.2
CS(=O)(=O)N1CCN(Cc2ccc(-c3nc(-c4ccc(NC(=O)Nc5ncc[nH]5)cc4)nc(N4CCOCC4)n3)s2)CC1	47.7
CS(=O)(=O)N1CCN(Cc2ccc(-c3nc(-c4ccc(NC(=O)Nn5cnnc5)cc4)nc(N4CCOCC4)n3)s2)CC1	46.8
CS(=O)(=O)N1CCN(Cc2ccc(-c3nc(-c4ccc(NC(=O)Nc5ccn[nH]5)cc4)nc(N4CCOCC4)n3)s2)CC1	87.2
Cn1ccc(NC(=O)Nc2ccc(-c3nc(-c4ccc(CN5CCN(S(C)(=O)=O)CC5)s4)nc(N4CCOCC4)n3)cc2)n1	80.1
CS(=O)(=O)N1CCN(Cc2ccc(-c3nc(-c4ccc(NC(=O)Nc5ccccn5)cc4)nc(N4CCOCC4)n3)s2)CC1	16.1
CS(=O)(=O)N1CCN(Cc2ccc(-c3nc(-c4ccc(NC(=O)Nc5ccc6[nH]ncc6c5)cc4)nc(N4CCOCC4)n3)s2)CC1	93

###

System: RAC-alpha serine/threonine-protein kinase (Homo sapiens)
Test: Inhibition of AKT1 (unknown origin) at 1 uM by kinase-glo luminescent assay relative to control
Catalogue of compounds with associated inhibition
Measured Endpoint: inhibition

Compound	Measured Endpoint	Measured
CS(=O)(=O)N1CCN(Cc2ccc(-c3nc(-c4ccc(NC(=O)Nc5ccncc5)cc4)nc(N4CCOCC4)n3)s2)CC1	inhibition	18.2%
Cn1ccc(NC(=O)Nc2ccc(-c3nc(-c4ccc(CN5CCN(S(C)(=O)=O)CC5)s4)nc(N4CCOCC4)n3)cc2)n1	inhibition	1.02%
CS(=O)(=O)N1CCN(Cc2ccc(-c3nc(-c4ccc(NC(=O)Nc5ccn[nH]5)cc4)nc(N4CCOCC4)n3)s2)CC1	inhibition	4.03%

###

System: Serine/threonine-protein kinase mTOR (Homo sapiens, UniProt P42345)
Test: Inhibition of mTOR (unknown origin) at 1 uM by kinase-glo luminescent assay relative to control
Catalogue of inhibition readings, one per entry.

Molecule	inhibition (%)
CS(=O)(=O)N1CCN(Cc2ccc(-c3nc(-c4ccc(NC(=O)Nc5cnccn5)cc4)nc(N4CCOCC4)n3)s2)CC1	76.6
CS(=O)(=O)N1CCN(Cc2ccc(-c3nc(-c4ccc(NC(=O)NC5CN6CCC5CC6)cc4)nc(N4CCOCC4)n3)s2)CC1 (centres undefined)	17.1
CS(=O)(=O)N1CCN(Cc2ccc(-c3nc(-c4ccc(NC(=O)Nc5ccn[nH]5)cc4)nc(N4CCOCC4)n3)s2)CC1	91.1
CS(=O)(=O)N1CCN(Cc2ccc(-c3nc(-c4ccc(NC(=O)Nc5ccc6[nH]ncc6c5)cc4)nc(N4CCOCC4)n3)s2)CC1	96.4
CS(=O)(=O)N1CCN(Cc2ccc(-c3nc(-c4ccc(NC(=O)Nc5ncccn5)cc4)nc(N4CCOCC4)n3)s2)CC1	93
CS(=O)(=O)N1CCN(Cc2cc3nc(-c4cccc5[nH]ncc45)nc(N4CCOCC4)c3s2)CC1	90.6
CS(=O)(=O)N1CCN(Cc2ccc(-c3nc(-c4ccc(NC(=O)Nc5ccncn5)cc4)nc(N4CCOCC4)n3)s2)CC1	86.8
CS(=O)(=O)N1CCN(Cc2ccc(-c3nc(-c4ccc(NC(=O)Nc5nc[nH]n5)cc4)nc(N4CCOCC4)n3)s2)CC1	97.3
Cn1nccc1NC(=O)Nc1ccc(-c2nc(-c3ccc(CN4CCN(S(C)(=O)=O)CC4)s3)nc(N3CCOCC3)n2)cc1	72.7
